Molecular target: P2X purinoceptor 5 (Rattus norvegicus)
Sequence (P51578 whole entry): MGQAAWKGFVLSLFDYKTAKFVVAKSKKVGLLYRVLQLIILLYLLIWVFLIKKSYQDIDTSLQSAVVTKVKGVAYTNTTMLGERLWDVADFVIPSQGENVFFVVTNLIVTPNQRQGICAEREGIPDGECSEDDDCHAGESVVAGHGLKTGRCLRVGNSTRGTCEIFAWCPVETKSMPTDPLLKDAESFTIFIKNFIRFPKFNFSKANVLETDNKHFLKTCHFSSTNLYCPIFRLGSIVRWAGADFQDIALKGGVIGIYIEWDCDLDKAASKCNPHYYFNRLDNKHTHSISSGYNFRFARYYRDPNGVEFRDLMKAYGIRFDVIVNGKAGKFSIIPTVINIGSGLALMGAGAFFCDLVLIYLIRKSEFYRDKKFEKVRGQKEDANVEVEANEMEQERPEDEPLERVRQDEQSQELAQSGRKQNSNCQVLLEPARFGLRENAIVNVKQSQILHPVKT
Assay: Antagonist activity against recombinant rat P2X purinoceptor 5 (P2X5)
Format: functional
Measured pEC50 values are reported for all entries that follow.
Friendly reminder that pEC50 comes from taking -log10 of the concentration in mol/L.

- MOLECULE: "Nc1ncnc2c1ncn2[C@@H]1O[C@H](COP(=O)(O)OP(=O)(O)O)[C@@H](O)[C@H]1O [ADENOSINE DIPHOSPHATE]"
  REPORTED_MEASUREMENT: 4.74

Problem: Provide pEC50, system P2X purinoceptor 5 (Rattus norvegicus), entry CSc1nc(N)c2ncn([C@@H]3O[C@H](COP(=O)(O)OP(=O)(O)OP(=O)(O)O)[C@@H](O)[C@H]3O)c2n1
Solution: 6.00

Problem: Provide pEC50, system P2X purinoceptor 5 (Rattus norvegicus), entry Cc1ccc(C(=O)Nc2ccc(S(=O)(=O)O)c3cc(S(=O)(=O)O)cc(S(=O)(=O)O)c23)cc1NC(=O)c1cccc(NC(=O)Nc2cccc(C(=O)Nc3cc(C(=O)Nc4ccc(S(=O)(=O)O)c5cc(S(=O)(=O)O)cc(S(=O)(=O)O)c45)ccc3C)c2)c1
Solution: 5.40

Problem: Provide pEC50, system P2X purinoceptor 5 (Rattus norvegicus), entry Nc1ncnc2c1ncn2[C@@H]1O[C@H](CO[P@](=O)(O)O[P@](=O)(O)O[P@@](=O)(O)S)[C@@H](O)[C@H]1O
Solution: 6.22

Problem: Provide pEC50, system P2X purinoceptor 5 (Rattus norvegicus), entry Nc1ncnc2c1ncn2[C@@H]1O[C@H](COP(=O)(O)OP(=O)(O)OP(=O)(O)O)[C@@H](O)[C@H]1O [ADENOSINE TRIPHOSPHATE]
Solution: 6.00

Problem: Provide pEC50, system P2X purinoceptor 5 (Rattus norvegicus), entry Cc1nc(/N=N/c2ccc(S(=O)(=O)O)cc2S(=O)(=O)O)c(COP(=O)(O)O)c(C=O)c1O
Solution: 5.59

Value source: ChEMBL document CHEMBL1135773
